molecular target: protein-protein interaction between Kras and SOS1 (biotin-tagged human Kras loaded with GDP, His-tagged human SOS1) (Homo sapiens (Human), UniProt P01116, G12D); assay: Protein-protein interaction inhibition between Kras and SOS1 (KrasG12D-SOS PPI) using AlphaScreen; assay type: biochemical; settings: AlphaScreen; biotin-tagged human Kras loaded with GDP, His-tagged human SOS1; read-out: KRAS G12D-SOS PPI IC50
Numbered stars: 1 amine (or outer) side, 2 acyl side, 3 side chain; on linkers, the order of the positions; unused ones are H or OH. Bridge positions count the residues as written; N and C are the ends. Square brackets hold non-standard residues; d marks the D form. Peptide text beside a SMILES is read from it. * marks the point of attachment. hPhe(3-Cl-4-CF3) = N[C@@H](CCc1ccc(C(F)(F)F)c(Cl)c1)C(=O)O; X103 = O=C([C@H](CCc1c(F)cccc1Cl)N[*:1])[*:2]; NMePhe(4-Cl) = CN[C@@H](Cc1ccc(Cl)cc1)C(=O)O; NMeCha = CN[C@@H](CC1CCCCC1)C(=O)O; NMeF = CN[C@@H](Cc1ccccc1)C(=O)O; NMeD = CN[C@@H](CC(=O)O)C(=O)O; NMeL = CN[C@@H](CC(C)C)C(=O)O; NMeV = CN[C@H](C(=O)O)C(C)C; d(β3hA) = C[C@@H](N)CC(=O)O; NMeS = CN[C@@H](CO)C(=O)O; NMeA = CN[C@@H](C)C(=O)O; Piperidide = C1CCN(*)CC1; Ac5c = NC1(C(=O)O)CCCC1; Aze = O=C(O)[C@@H]1CCN1; Cyclobutyl = C1CC(*)C1; Sar = CNCC(=O)O
READOUT_TYPE: pIC50
For clarity, pIC50 is expressed as the negative log10 of concentration in mol/L.

MOLECULE	pIC50
CC[C@H](C)[C@@H]1NC(=O)[C@H](C)N(C)C(=O)C[C@@H](C)NC(=O)[C@H](CC(C)C)N(C)C(=O)[C@H](Cc2ccccc2)N(C)C(=O)[C@H](CC(C)C)NC(=O)[C@H](CCc2c(F)cccc2Cl)NC(=O)CN(C)C(=O)[C@H](Cc2ccc(Cl)cc2)N(C)C(=O)CN(C)C(=O)CN(C)C1=O [Compound 2092] (cyclo(I[Sar][Sar][NMePhe(4-Cl)][Sar][X103]L[NMeF][NMeL][d(β3hA)][NMeA]))	6.46

Query string: Can you share its pIC50? I mean this molecule: CC[C@H](C)[C@@H]1NC(=O)[C@H](COC2CCC2)N(C)C(=O)C[C@@H](C(=O)N2CCCCC2)N(C)C(=O)[C@H](C(C)C)N(C)C(=O)C2(CCCC2)NC(=O)[C@@H]2CCCN2C(=O)[C@H](CCc2ccc(C(F)(F)F)c(Cl)c2)NC(=O)CN(C)C(=O)[C@H](CC2CCCCC2)N(C)C(=O)[C@@H]2CCN2C(=O)[C@H](C)N(C)C1=O [Compound 755] ([NMeS](Cyclobutyl)I[NMeA][Aze][NMeCha][Sar][hPhe(3-Cl-4-CF3)]P[Ac5c][NMeV][NMeD]-Piperidide; lactam N-11)
Result string: 8.25

====

target: protein-protein interaction between Kras and SOS1 (biotin-tagged human Kras loaded with GDP, His-tagged human SOS1) (Homo sapiens (Human), UniProt P01116, G12D); assay: Protein-protein interaction inhibition between Kras and SOS1 (KrasG12D-SOS PPI) using AlphaScreen; type: biochemical; conditions: AlphaScreen; biotin-tagged human Kras loaded with GDP, His-tagged human SOS1; read-out: KRAS G12D-SOS PPI IC50;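 note: kras produced in E. coli, Ni-coupled donor beads and streptavidin acceptor beads, excitation 680 nm with emission detected at 520–620 nm via singlet oxygen transfer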
Numbered stars: 1 amine (or outer) side, 2 acyl side, 3 side chain; on linkers, the order of the positions; unused ones are H or OH. Bridge positions count the residues as written; N and C are the ends. Square brackets hold non-standard residues; d marks the D form. Peptide text beside a SMILES is read from it. * marks the point of attachment. hPhe(3-Cl-4-CF3) = N[C@@H](CCc1ccc(C(F)(F)F)c(Cl)c1)C(=O)O; hPhe(3-F,4-CF3) = N[C@@H](CCc1ccc(C(F)(F)F)c(F)c1)C(=O)O; NMePhe(4-CF3) = CN[C@@H](Cc1ccc(C(F)(F)F)cc1)C(=O)O; 3Oxa8azabicyclo(3.2.1)octane = C1CC2COCC1N2*; NMePhe(4-Me) = CN[C@@H](Cc1ccc(C)cc1)C(=O)O; NMedβ3hAla = C[C@H](CC(=O)[*:2])N(C)[*:1]; NMeAla(cPent) = CN[C@@H](CC1CCCC1)C(=O)O; NMeGly(cPent) = CN[C@H](C(=O)O)C1CCCC1; Pro(4,4-F2) = O=C(O)[C@@H]1CC(F)(F)CN1; NMeCha = CN[C@@H](CC1CCCCC1)C(=O)O; NMeAhp(2) = CCCCC[C@H](NC)C(=O)O; NMeI = CC[C@H](C)[C@H](NC)C(=O)O; NMeD = CN[C@@H](CC(=O)O)C(=O)O; NMeL = CN[C@@H](CC(C)C)C(=O)O; NMeV = CN[C@H](C(=O)O)C(C)C; NMeS = CN[C@@H](CO)C(=O)O; NMeA = CN[C@@H](C)C(=O)O; Piperidide = C1CCN(*)CC1; Pyrrolidide = C1CCN(*)C1; Ac5c = NC1(C(=O)O)CCCC1; Aze = O=C(O)[C@@H]1CCN1; NEtG = CCNCC(=O)O; Sar = CNCC(=O)O; Propyl = CCC*
Form field: pIC50 (one value per entry).
Schema: pIC50 number; meaning minus log10 of the concentration expressed in molar units.

Example entries begin here.
COMPOUND	RESULT
CC[C@H](C)[C@@H]1NC(=O)[C@H](CC(C)C)N(C)C(=O)C[C@@H](C)N(C)C(=O)[C@H](C(C)C)N(C)C(=O)C2(CCCC2)NC(=O)[C@@H]2CCCN2C(=O)[C@H](CCc2ccc(C(F)(F)F)c(Cl)c2)NC(=O)CN(C)C(=O)[C@H](CC2CCCC2)N(C)C(=O)CN(C)C(=O)CN(C)C1=O [Compound 88] (cyclo([Ac5c][NMeV][NMedβ3hAla][NMeL]I[Sar][Sar][NMeAla(cPent)][Sar][hPhe(3-Cl-4-CF3)]P))	7.74
CCCCC[C@H]1C(=O)N[C@@H]([C@@H](C)CC)C(=O)N(C)[C@@H](C)C(=O)N2CC[C@H]2C(=O)N(C)[C@@H](Cc2ccc(C(F)(F)F)cc2)C(=O)N(C)CC(=O)N[C@@H](CCc2ccc(C(F)(F)F)c(Cl)c2)C(=O)N2CCC[C@H]2C(=O)NC2(CCCC2)C(=O)N(C)[C@@H]([C@@H](C)CC)C(=O)N(C)[C@H](C(=O)N2CCCC2)CC(=O)N1C [Compound 509] ([NMeAhp(2)]I[NMeA][Aze][NMePhe(4-CF3)][Sar][hPhe(3-Cl-4-CF3)]P[Ac5c][NMeI][NMeD]-Pyrrolidide; lactam N-11)	8.89
CC[C@H](C)[C@@H]1NC(=O)[C@H](CC(C)C)N(C)C(=O)C[C@@H](C(=O)N(C)C)N(C)C(=O)[C@H](C2CCCC2)N(C)C(=O)C2(CCCC2)NC(=O)[C@@H]2CC(F)(F)CN2C(=O)[C@H](CCc2ccc(C(F)(F)F)c(F)c2)NC(=O)CN(C)C(=O)[C@H](CC2CCCCC2)N(C)C(=O)[C@@H]2CCN2C(=O)[C@H](C)N(C)C1=O [Compound 1264] ([NMeL]I[NMeA][Aze][NMeCha][Sar][hPhe(3-F,4-CF3)][Pro(4,4-F2)][Ac5c][NMeGly(cPent)][NMeD]-NMe2; lactam N-11)	9.27

Query string: // lookup pIC50 for CCCOC[C@H]1C(=O)N(C)CC(=O)N[C@@H](CCc2ccc(C(F)(F)F)c(F)c2)C(=O)N2CCC[C@H]2C(=O)NC2(CCCC2)C(=O)N(C)[C@@H]([C@@H](C)CC)C(=O)N(C)[C@H](C(=O)N2C3CCC2COC3)CC(=O)N(C)[C@@H](CC(C)C)C(=O)N[C@@H]([C@@H](C)CC)C(=O)N(C)[C@@H](C)C(=O)N2CC[C@H]2C(=O)N1C [Compound 408] ([NMeL]I[NMeA][Aze][NMeS](Propyl)[Sar][hPhe(3-F,4-CF3)]P[Ac5c][NMeI][NMeD]-{3Oxa8azabicyclo(3.2.1)octane}; lactam N-11)
Result string: 7.96

Query string: Look at this compound and give its reported pIC50. CC[C@H](C)[C@@H]1NC(=O)[C@H](CC(C)C)N(C)C(=O)C[C@@H](C(=O)N(C)C)N(C)C(=O)[C@H](C2CCCC2)N(C)C(=O)C2(CCCC2)NC(=O)[C@@H]2CCCN2C(=O)[C@H](CCc2ccc(C(F)(F)F)c(Cl)c2)NC(=O)CN(CC)C(=O)[C@H](Cc2ccc(C)cc2)N(C)C(=O)[C@@H]2CCN2C(=O)[C@H](C)N(C)C1=O [Compound 5] ([NMeL]I[NMeA][Aze][NMePhe(4-Me)][NEtG][hPhe(3-Cl-4-CF3)]P[Ac5c][NMeGly(cPent)][NMeD]-NMe2; lactam N-11)
Result string: 9.00

Query string: Endpoint output: pIC50 of CC[C@H](C)[C@@H]1NC(=O)[C@H](CC(C)C)N(C)C(=O)C[C@@H](C(=O)N2CCCCC2)N(C)C(=O)[C@H](C(C)C)N(C)C(=O)C2(CCCC2)NC(=O)[C@@H]2CCCN2C(=O)[C@H](CCc2ccc(C(F)(F)F)c(Cl)c2)NC(=O)CN(C)C(=O)[C@H](Cc2ccc(C)cc2)N(C)C(=O)[C@@H]2CCN2C(=O)[C@H](C)N(C)C1=O [Compound 1828] ([NMeL]I[NMeA][Aze][NMePhe(4-Me)][Sar][hPhe(3-Cl-4-CF3)]P[Ac5c][NMeV][NMeD]-Piperidide; lactam N-11) . Value?
Result string: 8.57
